tested on: OVCAR-3; assay: NCI tumour cell line growth inhibition, 48 h
Calls of active or inactive are those of the source. Cut-off read from the data, not from the text of the source: active = GI50 up to about 1.1 µM and inactive = higher.
Log the outcome using a class from Y (active), N (inactive)

Worked examples follow.
molecule="O=C1/C(=C/c2ccc3c(c2)OCO3)SC2C=Nc3ccccc3N12 (stereo not given)" category_label=N
molecule="CCCCCCCCCCC(O)C1CCC(C2CCC(C(O)CCCCC(O)CCCCCC(O)CC3=CC(C)OC3=O)O2)O1 (stereo not given)" category_label=N
molecule="O=C(Nc1ccc(Br)cc1)C(=O)C(C(=O)c1ccccc1F)C1OC(=O)c2ccccc21 (stereo not given)" category_label=N

Please share the test call associated with OC(CN1CCCCC1)c1ccc(/C=C/c2ccc(Cl)cc2)cc1 (stereo not given) .
N

Please share the test call associated with "C[N+](C)=C/C=C(\Cl)c1ccc2ccccc2c1" .
N

* * *

Recorded GI50 by entry
tested on: NCI-H460; assay: NCI tumour cell line growth inhibition, 48 h
Active and inactive are the calls of the source. Rule as the data show it: active = GI50 up to about 1.1 µM and inactive = higher.

molecule="CC(C)(CN1CCCCC1)C(=O)CC(SCCS(=O)(=O)O)c1ccc(Br)cc1 (stereo not drawn)" assay_target=NCI-H460 result_type=GI50 meas_value="2.14 µM (inactive)"

Determine reported GI50 for "N=C(N)NS(=O)(=O)c1ccc(N/N=C2/CCOC2=O)cc1" ; test system: NCI-H460.
> 100 µM (inactive)

Determine reported GI50 for COc1nc2cccc(C(O)c3ccccc3)c2nc1-c1ccccc1 (stereo not drawn) ; test system: NCI-H460.
4.14 µM (inactive)

* * *

tested on: Malme-3M; experiment: NCI tumour cell line growth inhibition, 48 h
Activity calls are given as the source filed them. Rule as the data show it: active = GI50 up to about 1.1 µM and inactive = higher.
Recorded GI50 by entry

Example results:
molecule=Cc1ccc(-c2cc(-c3ccco3)c(C#N)c(O)n2)cc1 meas_value="> 100 µM (inactive)"
molecule=Cc1cc2c3ccccc3n(C)c2c2c1C(=O)C=CC2=O meas_value="20 µM (inactive)"
molecule=C#CCn1c(=O)ccn(/C(=C\C(=O)OCC)C(=O)OCC)c1=O meas_value="1.89 µM (inactive)"
molecule="Cc1ccc(S(=O)(=O)N/N=C2\\CCC3(O)CC2(C)CCC2C3CC2(C)C)cc1 (configuration not stated)" meas_value="53.2 µM (inactive)"
molecule=N=C(N)NS(=O)(=O)c1ccc(N/N=C2/CCOC2=O)cc1 meas_value="> 100 µM (inactive)"
molecule=Cc1cc(O)c(C(C)C)cc1/N=C/c1ccccc1O meas_value="14.7 µM (inactive)"

Answer with the recorded GI50 for the molecule listed here: "CCC(=O)Oc1ccc2c(c1)c(=O)c1c(NCCCN(C)C)ccc3nnn2c31"
3.98 µM (inactive)

Answer with the recorded GI50 for the molecule listed here: "COc1cc2ccc1OCc1cccc(n1)COc1ccc(cc1OC)/C=N\CCNCC/N=C\2"
> 100 µM (inactive)

Answer with the recorded GI50 for the molecule listed here: CCOC(=O)/C(C#N)=C/c1ccc2c(c1)CC1(C2)Cc2cc(CC)c(C(C)O)cc2C1 (configuration not stated)
6.11 µM (inactive)

Answer with the recorded GI50 for the molecule listed here: COc1cc([C@@H]2c3cc4c(cc3[C@H](OC3OC5COC(c6ccco6)OC5C(O)C3O)C3COC(=O)[C@@H]32)OCO4)cc(OC)c1OC (some centres not stated)
22.3 µM (inactive)

Answer with the recorded GI50 for the molecule listed here: "CN1CC[C@@]2(c3cccc(O)c3)CC(=O)/C(=C/c3ccc(Cl)c(Cl)c3)[C@H]1C2"
3.44 µM (inactive)

Answer with the recorded GI50 for the molecule listed here: Nc1ncnc2oc(C3OC(COC(=O)c4ccccc4)C(OC(=O)c4ccccc4)C3OC(=O)c3ccccc3)nc12 (configuration not stated)
96.2 µM (inactive)

* * *

tested on: DU-145; assay: NCI tumour cell line growth inhibition, 48 h
Activity calls are given as the source filed them. Rule as the data show it: active = GI50 up to about 1.1 µM and inactive = higher.
Log the outcome using a class from active, inactive

Worked examples follow.
molecule=Cc1cc(C(C)(C)C)c(OCCCN2CCOCC2)c(C(C)(C)C)c1 category_label=inactive
molecule=COC(=O)c1ccccc1/N=C(/NC1CCCCCC1)NS(=O)(=O)c1ccc(C)cc1 category_label=inactive
molecule=COc1cccc(-c2cc(O)c3cc(OC)ccc3n2)c1 category_label=active

Please share the test call associated with "O=[N+]([O-])c1ccccc1S(=O)(=O)c1cccc2c1NCCC2" .
inactive

Please share the test call associated with CCCS(=O)OC1C(C2COC(C)(C)O2)OC2OC(C)(C)OC21 (centres undefined) .
inactive

Please share the test call associated with "Nc1nc(O)c2nc3c(nc2n1)C(=O)N(c1ccc(C(=O)O)cc1)C3" .
inactive

Please share the test call associated with "CCOc1c2c(cc3c1C(=O)c1c(OC)cccc1C3=O)C=C(OC)CC2" .
inactive

Please share the test call associated with COC(=O)c1cc(NC2OCC(OC(C)=O)C(OC(C)=O)C2OC(C)=O)nc(SC)c1C(=O)OC (centres undefined) .
inactive

Please share the test call associated with CCOC(=O)CCC(C(=O)OCC)n1nnc2cc(Nc3c(C)[n+]([O-])c4cc(F)c(OCC)cc4[n+]3[O-])ccc21 (centres undefined) .
inactive

Please share the test call associated with "CC(=O)Nc1nc2c(=O)c3ccccc3sc2s1" .
inactive

Please share the test call associated with "CCCCn1c2c(n(CCCC)c1=S)-c1c(n(CCCC)c(=S)n1CCCC)S[Se][Se]S2" .
inactive

Please share the test call associated with COC(=O)C1(CCC(C)=O)CCCCCC1=O (centres undefined) .
inactive

Please share the test call associated with "CSCCCNC(=O)c1csc(-c2csc(CCNC(=O)CNC(=O)OC(C)(C)C)n2)n1" .
inactive

Please share the test call associated with COC1OC(C)/C(=N/O)C2OC(C)(C)OC12 (centres undefined) .
inactive

* * *

test system: T47D; test: NCI tumour cell line growth inhibition, 48 h
The source made the active and inactive calls. No stated cut-off is given here; in the data, active = GI50 up to about 1.1 µM and inactive = higher.
Result type: GI50

compound=CN1C2CCC1CC(=CCOC(c1ccc(F)cc1)c1ccc(F)cc1)C2 meas_value="17.6 µM (inactive)"
compound=O=C(Nc1ccccn1)/C(=C\C(=O)c1ccc(Cl)cc1)Nc1ccccc1 meas_value="> 10 µM (inactive)"
compound="CCCCc1ccc(Nc2nc(Cl)c3c(ncn3C3CC(Oc4ccc(C)cc4)C(COc4ccc(C)cc4)O3)n2)cc1 (centres undefined)" meas_value="> 100 µM (inactive)"

# next compound below
Answer with the recorded GI50 for the compound listed here: "COc1ccc2c(c1)CCc1c-2n(CCN2CCOCC2)c2ccc(OC)cc12"
> 100 µM (inactive)

* * *

system: MDA-MB-231; assay: NCI tumour cell line growth inhibition, 48 h
The source made the active and inactive calls. Rule as the data show it: active = GI50 up to about 1.1 µM and inactive = higher.
Result type: GI50

compound="OC(CN1CCCCC1)c1ccc(/C=C/c2ccc(Cl)cc2)cc1 (stereo unspecified)" assay_target=MDA-MB-231 result_type=GI50 meas_value="> 100 µM (inactive)"

Answer with the recorded GI50 for the compound listed here: "O=C(N/N=C/c1ccccc1O)c1ccccc1Nc1ccccc1C(=O)N/N=C/c1ccccc1O"
99.3 µM (inactive)

Answer with the recorded GI50 for the compound listed here: Nc1ncnc2oc(C3OC(COC(=O)c4ccccc4)C(OC(=O)c4ccccc4)C3OC(=O)c3ccccc3)nc12 (stereo unspecified)
> 100 µM (inactive)

Answer with the recorded GI50 for the compound listed here: Cc1ccc(OCC2OC(n3cnc4c(Cl)nc(Cl)nc43)CC2Oc2ccc(C)cc2)cc1 (stereo unspecified)
2.08 µM (inactive)

Answer with the recorded GI50 for the compound listed here: "CO[P@]1(=O)O[C@@H](c2ccccc2)[C@H](O)[C@@]1(O)c1ccccc1"
> 100 µM (inactive)

Answer with the recorded GI50 for the compound listed here: COc1ccc(C[C@@H](C(=O)O[C@H](C)[C@H](NC(=O)[C@@H](CC(C)C)N(C)C(=O)C2CCCN2C(=O)[C@H](C)O)C(=O)N2CCCCNC(=O)[C@@H](C)C(=O)[C@H](C(C)C)OC(=O)C[C@H](O)[C@H]2CC(C)C)N(C)C(C)=O)cc1 (stereo partly specified)
9.35 µM (inactive)

* * *

tested on: UACC-257; assay: NCI tumour cell line growth inhibition, 48 h
Calls of active or inactive are those of the source. Rule as the data show it: active = GI50 up to about 1.1 µM and inactive = higher.
Log the outcome using a class from true (1) for active, false (0) for inactive

Worked examples follow.
compound=CC(C)N1CC2CN(Cc3ccccc3)CC(C1)C2=O assay_target=UACC-257 category_label="false (0)"
compound=Cc1cc2c(s1)C(=O)c1sccc1C2=O assay_target=UACC-257 category_label="true (1)"
compound="COC(=O)C1(CCC(C)=O)CCCCCC1=O (stereo not given)" assay_target=UACC-257 category_label="false (0)"
compound="COc1ccc(N2C(=O)[C@H]3[C@H]4CC(C(C)(C)C)CC[C@H]4c4c(n(C)c5ccccc45)[C@H]3C2=O)cc1 (stereo not given in full)" assay_target=UACC-257 category_label="false (0)"
compound=Nc1ccc(Oc2ccc(C34CC5CC6C3CC3CC4C(C5)C6(c4ccc(Oc5ccc(N)cc5)cc4)C3)cc2)cc1 assay_target=UACC-257 category_label="true (1)"

Please share the test call associated with CCCCCCCCCCC(O)C1CCC(C2CCC(C(O)CCCCC(O)CCCCCC(O)CC3=CC(C)OC3=O)O2)O1 (stereo not given) .
false (0)

Please share the test call associated with "CC1(C)O[C@@H]([C@@H](O)[C@H](O)C2SCCCS2)[C@@H](CO)O1" .
false (0)

Please share the test call associated with CCOC(=O)C(/N=N\c1ccc(S(N)(=O)=O)cc1)C(C)=O (stereo not given) .
false (0)

Please share the test call associated with "CSCCCNC(=O)c1csc(-c2csc(CCNC(=O)CNC(=O)OC(C)(C)C)n2)n1" .
false (0)

Please share the test call associated with "COC(=O)/C=C\n1c(C)cc(=O)[nH]c1=O" .
false (0)

Please share the test call associated with CCOC(=O)/C(C#N)=C/c1ccc2c(c1)CC1(C2)Cc2cc(CC)c(C(C)O)cc2C1 (stereo not given) .
false (0)

Please share the test call associated with O=C1N/C(=N/N=C/C(O)C(O)C(O)CO)N/C1=C\c1c[nH]c2ccccc12 (stereo not given) .
false (0)

Please share the test call associated with COc1ccc2c3c([nH]c2c1[N+](=O)[O-])C(C)N(C(=O)/C=C/c1ccccc1)CC3 (stereo not given) .
false (0)

Please share the test call associated with C=C1C2CCC3C4(C)CCCC(C)(C(=O)O)C4CCC3(C2)C1OC(=O)/C(C)=C/C (stereo not given) .
false (0)

Please share the test call associated with "NC1=C(NC(=O)Cc2ccccc2F)C(=O)c2ccccc2C1=O" .
false (0)

Please share the test call associated with CC1=NN2C=Nc3c(c(-c4ccc(Cl)cc4)cn3-c3ccc(C)cc3)C2N1 (stereo not given) .
false (0)

Please share the test call associated with "CCOC(=O)c1cc(-c2ccc(OC)c(OC)c2)c[nH]1" .
false (0)

Please share the test call associated with O=C(OC(/C=C/c1ccccc1)P1(=O)N(Cc2ccccc2)[C@@H]2CCCC[C@H]2N1Cc1ccccc1)c1ccccc1 (stereo not given in full) .
false (0)

Please share the test call associated with "O=P1(c2ccccc2)Nc2ccccc2SSc2ccccc2N1" .
false (0)
